# TARGET UNDER TEST: T1, streptavidin (UniProt P22629 25-183)
# T1 construct: streptavidin, model target; Source may be told in the ESI
# T1 sequence (P22629 25-183): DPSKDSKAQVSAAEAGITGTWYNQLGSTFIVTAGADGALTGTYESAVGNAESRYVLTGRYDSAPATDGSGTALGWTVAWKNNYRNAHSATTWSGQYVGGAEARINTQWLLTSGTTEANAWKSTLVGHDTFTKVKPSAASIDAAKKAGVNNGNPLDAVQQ
# METHOD DESCRIPTION: SPR; binding of peptide to streptavidin
# STATED CONDITIONS: both partners purified
Where no end group is shown, it is not given here.
PROPERTY LABEL: pKd
One number for each entry, as −log10 of the molar value.

Ask: Fill blank: measured pKd of the binder GCGSDEACFCPCSHPENCPMAQHC (disulfide (positions not given here)) [tricyclic peptide 17] is ____.
Result: 7.42
